These data points were gathered from the supplement of paper PMC6555819.

- System: VDR:RXRa (NR concentration 270 nM, RXRa partner concentration 90 nM)
- Test protocol: PBM binding z-score (relative to random genomic background probes); higher = stronger binding; sequences stand for … in GC…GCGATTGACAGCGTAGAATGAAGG
The following sequences are listed with their measured PBM binding z-score values.
Lab note: jot down the number only; don't add units.

>>> print(df.to_string())
                                  seq                                    system    property_measured  quantitative_readout
0  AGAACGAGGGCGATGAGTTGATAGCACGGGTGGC  VDR:RXRa (NR concentration 270 nM, RXRa partner concentration 90 nM)  PBM binding z-score                  3.12
1  ATCGAAAGGGCGAAGGTGAGTATACCCACCCGAA  VDR:RXRa (NR concentration 270 nM, RXRa partner concentration 90 nM)  PBM binding z-score                 0.347
2  CCTGCTAGGTCAATGGTCAGCTGAAGCAGCTCGC  VDR:RXRa (NR concentration 270 nM, RXRa partner concentration 90 nM)  PBM binding z-score                 0.785
3  AGAATGAGGTTAAGACCAGGGAAACAGAATACAT  VDR:RXRa (NR concentration 270 nM, RXRa partner concentration 90 nM)  PBM binding z-score                  1.03
4  CGTCAAAGTTCAAGGTATCGTAACAGAAAGCAGC  VDR:RXRa (NR concentration 270 nM, RXRa partner concentration 90 nM)  PBM binding z-score                  3.74
5  TCTTGTAGATCAGCATGTTAAGAAAGCTGGCCAA  VDR:RXRa (NR concentration 270 nM, RXRa partner concentration 90 nM)  PBM binding z-score                 0.172
6  TCTAGCAGGGCAGAGGGTCACTCAAGAGGTACGG  VDR:RXRa (NR concentration 270 nM, RXRa partner concentration 90 nM)  PBM binding z-score                  1.63
7  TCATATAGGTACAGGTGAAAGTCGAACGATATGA  VDR:RXRa (NR concentration 270 nM, RXRa partner concentration 90 nM)  PBM binding z-score                 0.846

PBM binding z-score reading for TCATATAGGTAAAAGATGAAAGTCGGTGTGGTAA : 0.912

PBM binding z-score reading for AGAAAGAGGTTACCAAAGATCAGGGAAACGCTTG : 1.3

PBM binding z-score reading for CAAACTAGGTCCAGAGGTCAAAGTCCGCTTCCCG : 5.14

PBM binding z-score reading for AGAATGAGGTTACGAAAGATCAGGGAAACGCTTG : 1.52
